# melting point per entry

- Compound: "O=C(Nc1cnc2c(c1)nc1n2CCCC1)c1cc2cc(C(F)(F)F)ccc2n1Cc1cccc(F)c1"
  melting point: "262 to 263 °C"
- Compound: "N#CCc1cc([N+](=O)[O-])c(F)cc1Cl"
  melting point: "67 to 68 °C"
- Compound: "CC(C)N(CC(O)(Cn1cncn1)c1ccc(Cl)cc1Cl)S(C)(=O)=O (stereo not given)"
  melting point: "132 to 133 °C"
- Compound: "CCOc1nn2c(-c3ccccc3Br)nnc2c2ccccc12"
  melting point: "157 to 158 °C"
- Compound: "COC(=O)c1ccccc1Nc1c(OC)ccc2ccccc12"
  melting point: "144 to 146 °C"
- Compound: "CS(=O)(=O)Oc1cnc2cc(OC(F)(F)F)ccc2c1O"
  melting point: "125 to 127 °C"
- Compound: "CC(CF)c1ccc(NC(=O)N(C)C)cc1 (stereo not given)"
  melting point: "145 to 146 °C"
- Compound: "CC#CC(C)(C)NC(=O)C(CC)Oc1cncc(Cl)c1 (stereo not given)"
  melting point: "87 to 89 °C"
- Compound: "O=C(CCc1ccncc1)c1c(O)c2cccnc2n(-c2ccccc2)c1=O"
  melting point: "206 to 208 °C"
- Compound: "CNC(=O)N1CC[C@H](OCc2cc(C(F)(F)F)cc(C(F)(F)F)c2)[C@H](Cc2ccccc2)C1 (relative stereo)"
  melting point: "160 to 161 °C"

----------
# melting point per entry

- Compound: "CCC1(CC)C(=O)N(C(C)(C)C)CC(C)(C)N1OC(C(=O)O)c1ccccc1 (stereo unspecified)"
  melting point: "125 to 133 °C"
- Compound: "NC1CCN(c2cnccn2)CC1"
  melting point: "158 to 160 °C"
- Compound: "CCCSC(=S)N1C(CO)Cc2c([nH]c3ccccc23)C1C (stereo unspecified)"
  melting point: "115 to 118 °C"
- Compound: "CCc1cccc2c(S(=O)(=O)c3ccc(C)cc3)cnnc12"
  melting point: "133 to 134 °C"
- Compound: "Cc1nc(O)cc(C2(c3ccc(Cl)cc3)CCC2)n1"
  melting point: "130 to 140 °C"
- Compound: "NC(=O)c1n[nH]c(S(=O)(=O)c2ccc(Br)cc2)n1"
  melting point: "130 to 136 °C"
- Compound: "CCOC(=O)c1cn(-c2cc(N)c(F)cc2F)c2c(OC)c(F)c(F)cc2c1=O"
  melting point: "159 to 162 °C"
- Compound: "Cc1noc(NS(=O)(=O)c2sccc2-c2ccccc2)c1Br"
  melting point: "105 to 107 °C"
- Compound: "Cc1coc2cc(N3CCCCC3)c(Cl)cc12"
  melting point: "82 to 84 °C"
- Compound: "OC(CCSc1cccc2ccccc12)CCc1cccnc1 (stereo unspecified)"
  melting point: "58 to 59 °C"
- Compound: "N#Cc1[nH]c(Br)c(Br)c1Br"
  melting point: "215 to 218 °C"
- Compound: "CCC(=O)NCC[C@@H]1CCc2cc(Br)c(O)cc21"
  melting point: "146 to 148 °C"
- Compound: "O=C(Cc1ccc(F)cc1)NC1CCN(Cc2ccc(Br)cc2)CC1"
  melting point: "144 °C"
- Compound: "CCN(CC)C(=O)OC1c2ccccc2C(=O)N1c1ccc2ccc(Cl)nc2n1 (stereo unspecified)"
  melting point: "142 to 144 °C"
- Compound: "COC(=O)C1=C(C)NC(C)=C(C(=O)OC)C1c1ccccc1CC(OC)OC"
  melting point: "113 to 114 °C"
- Compound: "O=C(O)CCCON1CCNC1=Nc1c(Cl)cccc1Cl"
  melting point: "115 to 116 °C"
- Compound: "O=C(c1ccc(Oc2ccc(Oc3ccc(C(=O)C(Cl)(Cl)Cl)cc3)cc2)cc1)C(Cl)(Cl)Cl"
  melting point: "215 to 217 °C"
- Compound: "O=S(=O)(O)c1ccc(Oc2ccc(-n3ccnc3)cc2)cc1"
  melting point: "80 °C"
- Compound: "N#CCON=C(C(=O)O)c1csc(NC(c2ccccc2)(c2ccccc2)c2ccccc2)n1"
  melting point: "180 °C"
- Compound: "COc1ccc(S(=O)(=O)N2C(=O)C(O[Si](C)(C)C)(c3ccccc3OC)c3cc(Cl)c(C)cc32)c(OC)c1 (stereo unspecified)"
  melting point: "190 to 191 °C"
- Compound: "CNC(=O)[C@H](Cc1ccc(OC)cc1)NC(=O)[C@H](CC(C)C)N[C@H](CCC(=O)NCc1ccccc1)C(=O)O"
  melting point: "104 to 108 °C"
- Compound: "CCONC(CC)=C1C(=O)CC(CCSc2ccc(Cl)cc2)CC1=O (stereo unspecified)"
  melting point: "42 to 43 °C"
- Compound: "Cc1cccc(NC(=O)NC2CN(C(=O)C(C)C)c3ccccc3N(CC(=O)c3ccccc3C)C2=O)c1 (stereo unspecified)"
  melting point: "174 to 176 °C"
- Compound: "CC1(C)COC(c2ccc(S)cc2)OC1"
  melting point: "134 to 136 °C"
- Compound: "O=C(O)Cc1ccc(OCc2ccc(F)cc2C(=O)O)cc1"
  melting point: "195 to 197 °C"
- Compound: "COc1ccc(S(=O)(=O)n2ccc3ccnc(Nc4ccc(F)cc4)c32)cc1"
  melting point: "125 to 127 °C"
- Compound: "COC(=O)[C@H](CC(C)C)NC(=O)OCC1c2ccccc2-c2ccccc21"
  melting point: "86 to 87 °C"
- Compound: "C=C(c1cn(-c2c(Cl)cc(C(F)(F)F)cc2Cl)nc1C#N)C(F)(F)Cl"
  melting point: "113 to 114 °C"
- Compound: "O=S(=O)(c1ccccc1)c1c[nH]c2ccncc12"
  melting point: "261 to 263 °C"
- Compound: "CCCNC(=O)COC1C(O)C(CO)OC(Oc2ccc(N)cc2)C1O (stereo unspecified)"
  melting point: "154 °C"
- Compound: "CCCOc1ncc(C(C)=O)cc1-c1nc2c(CC)n(C3CN(C(C)=O)C3)nc2c(=O)[nH]1"
  melting point: "229 to 230 °C"
- Compound: "CC1(CCC(N)=O)C(=O)CCC1=O"
  melting point: "159 to 162 °C"
- Compound: "O=C1Nc2ccccc2N(C(=O)CCCl)c2ccccc21"
  melting point: "241 to 242 °C"
- Compound: "N#C/C=C/c1cn(-c2c(Cl)cc(C(F)(F)F)cc2Cl)nc1C#N"
  melting point: "144 to 145 °C"
- Compound: "Cc1ccc(S(=O)(=O)OCC2COc3ccc4[nH]ccc4c3O2)cc1 (stereo unspecified)"
  melting point: "145 °C"
- Compound: "COc1cc(C)c(C(=O)c2c(F)ncc(C)c2I)c(OC)c1OC"
  melting point: "140 to 141 °C"
- Compound: "Cc1[nH]cnc1CC1CCc2[nH]c3c(F)cccc3c2C1=O (stereo unspecified)"
  melting point: "135 to 140 °C"
- Compound: "N#Cc1ccc(C(=O)c2ccccc2)s1"
  melting point: "85 to 89 °C"
- Compound: "CN(C)C(=O)c1cn(C)c2nc3cc(F)c(F)cc3cc2c1=O"
  melting point: "324 °C"
- Compound: "COc1cc(OCc2ccccc2)ccc1/C=C/c1cc(/C=C/c2ccc3cc[nH]c3c2)[nH]n1"
  melting point: "86 to 91 °C"
- Compound: "Cc1nc(N)nc(-c2cccc3ccccc23)c1C"
  melting point: "214 to 215 °C"
